System: CXCR4
Assay: Selectivity index, ratio of antiproliferative activity in human MCF10A cells to EC for inhibition of biotinylated TN14003 binding to CXCR4 in human MDA-MB-231 cells
Type: toxicity, cell-based
Conditions: probe biotinylated TN14003, read-out: Selectivity Index
propertyLabel: selectivity ratio

>>> valueobserved("Cc1ccc(S(=O)(=O)NCc2ccc(CNC(=O)c3ccc(F)cc3)cc2)cc1")
1000

* * *

Target: C-X-C chemokine receptor type 4 (Homo sapiens)
Test: Inhibition of CXCR4-mediated chemotaxis in human MDA-MB-231 cells assessed as inhibition of CXCL12alpha-induced cell invasion at 100 nM after 22 hrs by hematoxylin/eosin dye-based matrigel assay relative to control
Format: functional
propertyLabel: inhibition

>>> valueobserved("Cc1ccc(S(=O)(=O)NCc2ccc(CNC(=O)c3ccccc3Cl)cc2)cc1")
"> 90%"
>>> valueobserved("COc1ccccc1C(=O)NCc1ccc(CNS(=O)(=O)c2ccc(C)cc2)cc1")
"> 90%"
>>> valueobserved("Cc1ccccc1C(=O)NCc1ccc(CNS(=O)(=O)c2ccccc2)cc1")
"> 90%"
